- runDescription: thallium-flux fluorescence assay (FLIPR, BTC/AM)
- Format: cell-based, Homo sapiens
- conditionDescription: read-out: Kir6.1/SUR2B / EC50
pEC50: −log10 of the molar value.
reportedMetric: pEC50

Requested read-out: pEC50. Entry: `CC1(C)Oc2ccc(C#N)cc2[C@H](N(Cc2ncc[nH]2)c2ccc(Cl)cc2)[C@H]1O` < 4.52
